Give Preventive value for every item shown.
Tested on: Botrytis cinerea
EXPERIMENTAL_PARAMETERS: in vivo
Answers are plain numbers.

Parameters: items (list). Returns: Preventive value for each item.
1. CCCCC(C#N)(Cn1cncn1)c1ccc(Cl)cc1 (stereo not shown)
2. Fc1ccc([C@]2(Cn3cncn3)O[C@H]2c2ccccc2Cl)cc1 (racemic)
3. COC(=O)NCc1cc(/C(C)=N/OCc2cccc(C)n2)ccc1Cl

1: 17; 2: 33; 3: 40

What measured Preventive value goes with N#Cc1sc2c(=O)c3ccccc3c(=O)c=2sc1C#N ?
33

====

Answer each item with its documented Preventive value.
System: Sphaerotheca fuliginea
ASSAY: Cucumber powdery mildew preventive test
Type: in vivo
EXPERIMENTAL_PARAMETERS: in vivo
Numbers only.

1) CC1(C)CCC(Cc2ccc(Cl)cc2)C1(O)Cn1cncn1 (centres unmarked) :: 50
2) CC(=O)Oc1c(C)c(C)nc2c(F)cc(C(C)(C)C)cc12 :: 67
3) CCCN(CC)CC1COC2(CCC(C(C)(C)C)CC2)O1 (centres unmarked) :: 33

Each of the following entries comes with a recorded value; kindly state Preventive value for each.
1. O=C1c2ccccc2C(=O)N1SC(Cl)(Cl)Cl
2. CC(Cc1ccc(C(C)(C)C)cc1)CN1CCCCC1 (centres unmarked)

1: 33; 2: 40

The measurements presented in this section are drawn from patent US10201158B2.
